assay.method.text: Toxicity in C57BL/6 mouse xenografted with murine MC38 cells assessed as body weight immediately at 40 mg/kg, po administered once daily during 0 to 12 days and measured on day (reference value: 16.6 +/- 1 g)
test.settings: in vivo
reported.property: Activity (g)
# output: bare number, implied unit g

Query: // Activity lookup, key: "C=C1C(=O)O[C@H]2[C@H]1CCC(/C=N/NC(=O)Nc1ccc(C)cc1)=C\CC[C@@]1(C)O[C@@H]21"
Reply: 17.4

Continuing:
Query: Reported Activity, molecule "C=C1C(=O)O[C@H]2[C@H]1CCC(/C=N/NC(=S)Nc1ccc(C)cc1)=C\CC[C@@]1(C)O[C@@H]21" : ____
Reply: 16.1

Each recorded value in this set is attributed to ChEMBL document CHEMBL4622921.
